- Target Desc: Carbonic anhydrase 2 (Homo sapiens)
- Test Description: CAII small-molecule binders, profiling panel, biochemical, small-molecule microarray, Alexa647-labelled CAII (AID 1122)
- Measurement Conditions: CAII-A647 binding fluorescence, higher = more signal
Parameter: composite z-score. Scope: all listed entries.
Recorded Endpoint: composite z-score

Molecule: C[C@]1(C(=O)NCCN2CCOCC2)c2ccccc2C(=O)N(Cc2ccc(OC(F)(F)F)cc2)[C@H]1c1ccc(CO)cc1
Data Value: 0.627
--
Molecule: CC=CC(O)C1C=CC2C(=O)N(C)C(=O)C2N1Nc1ccc([N+](=O)[O-])cc1[N+](=O)[O-] (centres undefined)
Data Value: 0.834
--
Molecule: CC1CC/C=C\[C@H]2OC34C=CCN(c5ccc6ccccc6c5)C(=O)[C@H]3N(C(CO)C(C)C)C(=O)[C@@H]4C2C(=O)O1 (some centres undefined)
Data Value: 0.786
--
Molecule: O=C(O)[C@H]1C[C@H]2C(=O)N3CCC[C@H]3C(=O)N2[C@H]1c1cccc(OCCO)c1
Data Value: 0.525
--
Molecule: COCCOC(=O)N1C(=O)[C@@]2(c3cc(C#CCNC(N)=O)ccc31)[C@H](C(=O)N1CCCCCCC1)[C@H]1C(=O)O[C@H](c3ccccc3)[C@H](c3ccccc3)N1[C@@H]2c1ccc(O)cc1
Data Value: 0.354
--
Molecule: COC(=O)[C@@]1(Cc2ccc(F)cc2)[C@H]2c3cc(C(=O)N4CCCC4)n(CCc4c[nH]c5ccc(OC)cc45)c3C[C@H]2CN1C(=O)c1ccccc1
Data Value: 0.313
--
Molecule: [N-]=[N+]=NCc1ccccc1C[C@@]1(C(=O)NCCN2CCOCC2)N=C(c2ccc(OCCCO)cc2)O[C@@H]1c1ccccc1N=[N+]=[N-]
Data Value: 0.419
--
Molecule: Cc1ccc(S[C@]2(C(=O)NCCN3CCOCC3)CC(=O)N(Cc3ccccc3C(F)(F)F)[C@@H]2c2ccc(CO)cc2I)cc1
Data Value: 0.371
--
Molecule: COC(=O)[C@]1(CCS(=O)(=O)c2ccccc2)N=C(c2ccc(OCCCO)cc2)O[C@@H]1c1ccccc1CN=[N+]=[N-]
Data Value: 0.416
--
Molecule: O=C1NC(=O)C2C1C=CC(C(O)c1c(F)cccc1Cl)N2Nc1ccccn1 (centres undefined)
Data Value: 0.805
--
Molecule: O=C1O[C@@H](c2ccccc2)[C@@H](c2ccccc2)N2[C@@H](c3ccc(O)cc3)[C@]3(C(=O)Nc4ccc(C#CCCO)cc43)[C@@H](C(=O)NC[C@H](O)c3ccccc3)[C@H]12
Data Value: 0.724
--
Molecule: CC(C)CN1C(=O)[C@@]2(Cc3ccccc31)c1ccccc1C(=O)N(Cc1ccccc1C(F)(F)F)[C@H]2c1ccc(CO)cc1
Data Value: -0.381
--
Molecule: CN(C)CCCN1C(=O)[C@@]2(c3ccc([N+](=O)[O-])cc3)CC(=O)N(CC34CC5CC(CC(C5)C3)C4)[C@@H]2c2ccc(CO)cc21
Data Value: 0.76
--
Molecule: COC(=O)[C@@]1(Cc2ccc(F)cc2)[C@H]2c3cc(C(=O)N4CCCC4)n(CCF)c3C[C@H]2CN1C(=O)c1ccccc1
Data Value: 0.811
